Measured Target: human SCD1 (Homo sapiens (Human))
Assay Procedure: Yeast growth assay, strain expressing human SCD1 as the sole desaturase (reduced growth as surrogate for SCD inhibition)
Condition Label: yeast with OLE1 deleted expressing human SCD1 from a plasmid; growth read as OD600 after 40 h at 30° C.; top drug concentration 33.3 μM
Each entry below lists one item and its recorded IC50 value.
Kindly answer with a numeric value in µM, unit omitted.

Molecule	IC50 / µM
O=C(Nc1cnn(Cc2cccc(F)c2)c1)c1cc(C2CCCCC2)on1 [Compound 83]	0.066

Please examine the following record next.
GET /value?item= O=C(Nc1cnn(Cc2cccc(F)c2)c1)c1cc(-c2cnccn2)on1 [Compound 45] &field=IC50 returns 23.1

====

Quick reference for pIC50 among some molecules
Measured Target: human SCD1 (Homo sapiens (Human))
Assay Procedure: Yeast growth assay, strain expressing human SCD1 as the sole desaturase (reduced growth as surrogate for SCD inhibition)
Condition Label: yeast with OLE1 deleted expressing human SCD1 from a plasmid; growth read as OD600 after 40 h at 30° C.; top drug concentration 33.3 μM
pIC50: −log10 of the molar value.

// solved cases for pIC50 follow
Compound Structure	pIC50
CC(=O)N1CCN(c2cc(C(=O)Nc3cnn(Cc4ccccc4)c3)no2)CC1	4.54
CNC(=O)c1ccc(-c2cc(C(=O)N3CCC(F)(c4ccccc4)CC3)no2)cc1	< 4.35
O=C(Nc1cnn(-c2ccccc2)c1)c1cc(-c2ccco2)on1	< 4.35
O=C(c1cc(-c2ccc3c(c2)OCO3)on1)N1Cc2ccccc2C1	< 4.35
O=C(c1cc(-c2ccc3c(c2)OCO3)on1)N1CC(c2cccc(F)c2)C1	6.06
O=C(NC1CCN(c2ccccc2)CC1)c1cc(-c2ccco2)on1	< 4.35
NC(=O)c1cc(C(=O)Nc2cnn(Cc3cccc(F)c3)c2)no1	< 4.35

Please find the next molecule below.
The reported pIC50 of the molecule "O=C(Nc1cnn(Cc2cccc(F)c2)c1)c1cc(-c2cnco2)on1" was 6.73

====

Catalogue of pIC50 values
Measured Target: human SCD1 (Homo sapiens (Human), UniProt O00767)
Sequence (O00767 whole entry): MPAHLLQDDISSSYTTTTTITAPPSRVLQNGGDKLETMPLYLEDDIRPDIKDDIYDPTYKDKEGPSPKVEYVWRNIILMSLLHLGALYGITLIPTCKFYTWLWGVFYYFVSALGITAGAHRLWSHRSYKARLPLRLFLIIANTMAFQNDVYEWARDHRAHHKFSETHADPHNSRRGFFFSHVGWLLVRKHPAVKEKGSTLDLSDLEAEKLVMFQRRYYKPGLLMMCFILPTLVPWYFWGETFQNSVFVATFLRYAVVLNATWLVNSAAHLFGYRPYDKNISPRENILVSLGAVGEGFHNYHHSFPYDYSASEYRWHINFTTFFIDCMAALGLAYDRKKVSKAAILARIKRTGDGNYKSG
Assay Procedure: Yeast growth assay, strain expressing human SCD1 as the sole desaturase (reduced growth as surrogate for SCD inhibition)
Format: cell-based
Condition Label: yeast with OLE1 deleted expressing human SCD1 from a plasmid; growth read as OD600 after 40 h at 30° C.; top drug concentration 33.3 μM
pIC50: −log10 of the molar value.

Molecule	Measured Target	Obs Value
C=C(C)c1cc(C(=O)N2CCC3(CCc4c(F)cccc4O3)CC2)no1	human SCD1 (Homo sapiens (Human), UniProt O00767)	< 4.35
O=C(c1cc(-c2ccc3nccnc3c2)on1)N1CCC[C@H]1c1ccccc1	human SCD1 (Homo sapiens (Human), UniProt O00767)	< 4.35
O=C(c1cc(-c2ccc3c(c2)OCO3)on1)N1CCOCC1c1ccccc1 (centres unmarked)	human SCD1 (Homo sapiens (Human), UniProt O00767)	< 4.35
O=C(c1cc(-c2ccncc2)on1)N1CCC[C@H]1c1ccccc1	human SCD1 (Homo sapiens (Human), UniProt O00767)	4.64
C=C(C)c1cc(C(=O)Nc2cnn(Cc3ccccc3)c2)on1	human SCD1 (Homo sapiens (Human), UniProt O00767)	5.05
N#Cc1ccc(Cn2cc(NC(=O)c3cc(-c4ccccc4)on3)cn2)nc1	human SCD1 (Homo sapiens (Human), UniProt O00767)	< 4.35

Per the record, "CC(C)c1cc(C(=O)N2CC(c3ccccc3)C2)no1" has pIC50 of < 4.35

pIC50 reported for this molecule COc1ccccc1C1CCCN1C(=O)c1cc(-c2ccc3c(c2)OCO3)on1 (centres unmarked) : < 4.35

Reported pIC50 of "Cn1ccc(-c2cc(C(=O)N3CCC[C@H]3c3ccccc3)no2)cc1=O" : 4.53
